// data source = the supplement of paper PMC11208160

assay: recombinant UMI read abundance after kanamycin selection (control-corrected) (log10(CPM+1)); higher = more efficient recombination; extreme values may be limits of the assay; sequences stand for … in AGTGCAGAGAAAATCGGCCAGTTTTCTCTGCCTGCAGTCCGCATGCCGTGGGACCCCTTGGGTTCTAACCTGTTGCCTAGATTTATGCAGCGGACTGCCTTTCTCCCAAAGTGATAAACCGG…AGGTTGGTTTCACT; site = the 11-nt donor;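 further: IS621 bridge recombinase in Escherichia coli cells against a fixed T5 target plasmid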
testReadout: recombinant UMI read abundance (log10)
Provide a numeric answer; units are not to be included.

Please look at this sequence and report its recombinant UMI read abundance (log10): ACCTTAGCATGGACCGGTTTTCCCGGTAATCCGTATTTGAA (site ACCTTAGCTTT) 0.29

----------
assay: recombinant UMI read abundance after kanamycin selection (control-corrected) (log10(CPM+1)); higher = more efficient recombination; extreme values may be limits of the assay; sequences stand for … in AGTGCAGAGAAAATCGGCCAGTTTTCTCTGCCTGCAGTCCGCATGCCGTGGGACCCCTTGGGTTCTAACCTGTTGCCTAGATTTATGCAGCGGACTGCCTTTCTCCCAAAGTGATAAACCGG…AGGTTGGTTTCACT; site = the 11-nt donor
Label rule, in plain words: recombinant UMI read abundance (log10) of 0.01 and up is Y, under 0.01 is N.

Take a look at these entries with their results.
CCGTTTTCATGGACCGGTTTTCCCGGTAATCCGTATTTGCT (site CCGTTTACTAG): N
CTTTGGGCATGGACCGGTTTTCCCGGTAATCCGTATTTGCC (site CTTTGGGCTGG): N
CGGGAACCATGGACCGGTTTTCCCGGTAATCCGTATTTGAT (site CGGGAACCTCT): N

State whether the measured recombinant UMI read abundance (log10) reaches 0.01, counting equality as reaching it, for TAGTGGACATGGACCGGTTTTCCCGGTAATCCGTATTTGTT (site TAGTGGACTAA) Y

State whether the measured recombinant UMI read abundance (log10) reaches 0.01, counting equality as reaching it, for GTGGCGGCATGGACCGGTTTTCCCGGTAATCCGTATTTGTG (site GTGGAGGCTCA) Y

State whether the measured recombinant UMI read abundance (log10) reaches 0.01, counting equality as reaching it, for AATGTAACATGGACCGGTTTTCCCGGTAATCCGTATTTGAT (site AATGTAACTAG) N

State whether the measured recombinant UMI read abundance (log10) reaches 0.01, counting equality as reaching it, for AATGTAACATGGACCGGTTTTCCCGGTAATCCGTATTTGCA (site AATGTAACTGG) N

State whether the measured recombinant UMI read abundance (log10) reaches 0.01, counting equality as reaching it, for ATCCAAGCATGGACCGGTTTTCCCGGTAATCCGTATTTGAC (site ATCCAAGCTAT) Y

State whether the measured recombinant UMI read abundance (log10) reaches 0.01, counting equality as reaching it, for GTTGTTCCATGGACCGGTTTTCCCGGTAATCCGTATTTGGT (site TTTGTTCCTAC) Y

State whether the measured recombinant UMI read abundance (log10) reaches 0.01, counting equality as reaching it, for GGTCGAGCATGGACCGGTTTTCCCGGTAATCCGTATTTGCA (site GCTCGAGCTTG) Y

State whether the measured recombinant UMI read abundance (log10) reaches 0.01, counting equality as reaching it, for GAGCCGACATGGACCGGTTTTCCCGGTAATCCGTATTTGGC (site GAGCCGACTGC) N

State whether the measured recombinant UMI read abundance (log10) reaches 0.01, counting equality as reaching it, for GTAGTCCCATGGACCGGTTTTCCCGGTAATCCGTATTTGCG (site GTAGTCGCTCG) Y
